METHOD_DESCRIPTION: Plasma incubations (rat plasma stability)
Format: in vitro ADME
ASSAY_CONTEXT: 25 μM, 37° C., percent remaining at 1 hour
I'd be grateful if you could share measured Rat Plasma Stability % rem. @ 1 h for these entries.
Report only the number, with the unit % understood.

Q: What measured Rat Plasma Stability % rem. @ 1 h goes with CC(C)C[C@H](NC(=O)c1ccc(-c2csc(N3CCN(C)CC3)n2)cc1)C(=O)N1C[C@@H](F)[C@H]2OCC(=O)[C@H]21 ?
Result: 90.2

Q: Requested field: Rat Plasma Stability % rem. @ 1 h. Item: CN1CCN(c2nc(-c3ccc(C(=O)N[C@H](C(=O)N4CC[C@H]5OCC(=O)[C@H]54)C4CCCC4)cc3)cs2)CC1
Result: 93

Q: # input molecule: CC(C)C[C@H](NC(=O)c1ccc(-c2csc(N3CCN(C)CC3)n2)cc1)C(=O)N1CC[C@H]2OCC(=O)[C@H]21 ; wanted: its Rat Plasma Stability % rem. @ 1 h
Result: 88.6
